Target: Homeobox protein Hox-A13 (Mus musculus) (UniProt Q62424)
Sequence (Q62424 whole entry, looked up): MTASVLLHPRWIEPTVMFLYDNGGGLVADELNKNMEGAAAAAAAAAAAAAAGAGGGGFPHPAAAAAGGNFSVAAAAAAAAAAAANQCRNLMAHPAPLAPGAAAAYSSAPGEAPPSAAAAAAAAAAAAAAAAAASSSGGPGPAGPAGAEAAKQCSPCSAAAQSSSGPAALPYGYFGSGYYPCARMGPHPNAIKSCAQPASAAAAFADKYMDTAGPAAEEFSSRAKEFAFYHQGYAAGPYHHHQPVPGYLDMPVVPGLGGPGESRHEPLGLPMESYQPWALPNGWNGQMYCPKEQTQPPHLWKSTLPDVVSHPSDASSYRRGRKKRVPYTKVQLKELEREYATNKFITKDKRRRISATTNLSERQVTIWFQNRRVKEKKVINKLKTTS
Experiment: inhibitors of HoxA13-DNA binding, primary screen, biochemical, fluorescence polarization, labeled oligonucleotide (AID 1185)
Conditions: 15 min, higher = more signal, called active from +8 up or from −8 down
Classification field: enter 1 for z-score values not below -3, 0 for values below it.

Recorded results for 7 molecules are shown here.
COc1ccc([Si](C)(C)[C@H]2[C@H](CC(=O)N(CCO)Cc3ccccc3)O[C@@]3(C(=O)N(Cc4cccc(N5CCOC5=O)c4)c4ccccc43)[C@@H]2C)cc1: 1
CN(C)C(=O)[C@]1(CCS(=O)(=O)c2ccccc2)N=C(c2ccc(OCCCO)cc2)O[C@@H]1c1ccccc1N=[N+]=[N-]: 0
CC(C)N1C(=O)C[C@@](C(=O)NCCCN(C)C)(c2ccc([N+](=O)[O-])cc2)[C@H]1c1ccc(CO)cc1: 1
Cn1cccc1C(O)C1C=CC2C(=O)NC(=O)C2N1Nc1ccc(Cl)cc1Cl (stereo not drawn): 0
CN1C(=O)C2C=CC(C(O)C#Cc3ccccc3)N(Nc3ccccc3)C2C1=O (stereo not drawn): 0
CCOc1cc(C(O)C2C=CC3C(=O)N(C)C(=O)C3N2Nc2ccccc2)ccc1O (stereo not drawn): 1
O[C@@H](Cc1ccccc1)[C@@H](/C=C/C1CC1)N(CC#Cc1ccccc1)Cc1cccc(Cl)c1: 1

Here's the next entry for you.
Ask: Entry C=CCC(OC(C)=O)[C@@H]1[C@@H](N(Cc2cccc3ccccc23)C(=O)Cc2ccc(OC)cc2)c2cc(OCCCO)ccc2N1C(=O)c1ccc2ccccc2n1 (stereo partly drawn) : is its z-score no less than -3?
Reply: 1
